# assayed system: BRCA2 peptide/HLA-A*02:01 complex (recombinant) (human)
# assay remarks: SPR

{"binder": "AS170036 VL1VH1-VHG108M (scFv) scFv: QSALTQPRSVSGSPGQSVTISCAGTSSDVGSENYVSWYQQHPGKAPKLMIYQVNKRASGVPDRFSGSKSGNTASLTISGLQAEDEADYYCASYRSSDHNIVFGGGTKLTVLGGGGSGGGGSGGGGSEVQLVESGGGLVQPGGSLRLSCAASGFTFSSYAMSWVRQAPGKGLEWVSTINSGTGSPYYADSVKGRFTISRDNSKNTLYLQMNSLRAEDTAVYYCAKNFFDGSWFLMPPAMDYWGQGTLVTVSSHHHHHH", "binding result": "no binding"}
{"binder": "AS170036 VL1VH1-VLH98A (scFv) scFv: QSALTQPRSVSGSPGQSVTISCAGTSSDVGSENYVSWYQQHPGKAPKLMIYQVNKRASGVPDRFSGSKSGNTASLTISGLQAEDEADYYCASYRSSDANIVFGGGTKLTVLGGGGSGGGGSGGGGSEVQLVESGGGLVQPGGSLRLSCAASGFTFSSYAMSWVRQAPGKGLEWVSTINSGTGSPYYADSVKGRFTISRDNSKNTLYLQMNSLRAEDTAVYYCAKNFFDGSWFLGPPAMDYWGQGTLVTVSSHHHHHH", "binding result": "no binding"}
